# TGT: T1, Hu CDH3 Dom1C mu (aa 180-215), human/mouse chimeric CDH3 on CHO cells (chimeric hu/mu, UniProt P22223 108-681 (human entry))
# T1 chain: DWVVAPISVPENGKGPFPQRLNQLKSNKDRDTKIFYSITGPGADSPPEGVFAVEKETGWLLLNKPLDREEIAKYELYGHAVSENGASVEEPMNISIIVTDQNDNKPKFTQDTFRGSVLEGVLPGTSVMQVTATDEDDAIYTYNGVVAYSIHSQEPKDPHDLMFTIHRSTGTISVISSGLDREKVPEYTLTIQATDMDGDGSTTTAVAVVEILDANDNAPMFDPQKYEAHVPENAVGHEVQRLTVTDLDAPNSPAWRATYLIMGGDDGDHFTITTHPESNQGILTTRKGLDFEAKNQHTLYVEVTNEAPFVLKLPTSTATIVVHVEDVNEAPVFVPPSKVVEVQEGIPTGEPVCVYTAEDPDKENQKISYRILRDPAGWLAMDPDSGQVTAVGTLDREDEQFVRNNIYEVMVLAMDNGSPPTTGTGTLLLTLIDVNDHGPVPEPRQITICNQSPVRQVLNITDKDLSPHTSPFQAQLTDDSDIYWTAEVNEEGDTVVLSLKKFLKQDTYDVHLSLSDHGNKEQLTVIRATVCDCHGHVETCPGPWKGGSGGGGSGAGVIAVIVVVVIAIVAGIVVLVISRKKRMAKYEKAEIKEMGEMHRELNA
# METHOD_DESCRIPTION: flow cytometry, transfected CHO cells; crude undiluted periplasmic scFv extract; anti-FLAG M2 + anti-mouse IgG Fcγ-PE; control PBS/2% FCS
MEASUREMENT_LABEL: binding result

# example entries with known answers
# binding result (binder: CDH3-5 (scFv, Used as crude periplasmic extract and detected through a FLAG tag; also called CDH3-5 scFv) scFv: EVQLVEQSGAELVKPGASVKISCKASGYAFSTSWMNWVKQRPGKGLEWIGRIYPGDGETKYNGKFKGKATLTADKSSSTAYMQLSSLTSEDSAVYFCARQRDYGALYALDYWGQGTRVTVSSGGGGSGGGGSGGGGSELMMTQTPASLSASVGETVTFTCRASENIYSYLAWYQQKQGKSPQLLVYNAKTLAEGVPSRFSGSGSGTQFSLKINSLQPEDFGSYYCQHHYVPPYTFGGGTKLEIK ) is binds

Form: binder = CDH3-6 scFv (scFv) scFv: EVQLVEESGPELVKPGASVKISCKASGYAFSSSWMNWVKQRPGKGLEWIGRIYPGDGETKYNGKFKGKATLTADKSSSTAYMQLSSLTSEDSAVYFCARQRDYGALYAMDYWGQGTSVTVSSGGGGSGGGGSGGGGSELVMTQSPASLSASVGETVTITCRASDDIYSYLAWYQQKQGKSPQLLVYNAKTLAEGVPSRFSGSGSGTQFSLKINSLQPEDFGTYYCQNHYVTPFTFGAGTKLEIK ; binding result = binds

Reported binding result for CDH3-10 scFv (scFv) scFv: EVQLVEESGGGLVKPGGSLKLSCAASGFTFSSYAMSWVRQTPDKRLEWVATISSGGHYTYYPDSVKGRFTISRDNAKNTLYLQMSSLKSEDTAMYYCASYYYGIPFGYWGQGTTVTVSSGGGGSGGGGSGGGGSELVMTQSPSSLSASLGEGVSLTCRASQDIGINLIWLRQEPDGTIKRLIYDTSSLDSGVPKRFSGSRSGSDYSLTISSLESEDFVHYYCLQYGSSPLTFGAGTKLEIK was binds

Given item CDH3-9 (scFv, Used as crude periplasmic extract and detected through a FLAG tag; also called CDH3-9 scFv) scFv: EVQLVEESGGDLVKPGGSLKLSCAASGFTFSTYGMSWVRQTPDKRLEWVATISSGGHYSYYPDSVKGRFTISRDNAKNTLYLQMSSLKSEDTAMYYCASYYYGSPFAYWGQGTTVTVSSGGGGSGGGGSGGGGSELQMTQSPSSLSASLGERVSLTCRASQDIGSSLNWLQQKPDGTIKRLIYDTSSLDSGVPKRFSGSRSGSDYSLTISSLESEDFGDYYCVQYGSSPLTFGAGTKLEIK , the value recorded as its binding result is binds

Continuing:
Sample CDH3-8 (scFv, Used as crude periplasmic extract and detected through a FLAG tag; also called CDH3-8 scFv) scFv: EVQLVEQSGAEVVKPGASVKITCKASGYAFSSYWMNWVRQRPGKGLEWIGHIYPGDGDTNYNGKFKGKVTLTADKSSNTAYMQLSDLTPEDSAVYFCARDRGSFGAWFAYWGQGTTVTVSSGGGGSGGGGSGGGGSELVMTQTPSSLSASLGDRVTISCRASQDISNYLNWYQQKPDGTVKLLIYYTSRLHSGVPSRFSGSGSGTDYSLTISNLEQEDIATYFCQQGNRNPPTFGGGTKLEIK ; binding result observed: binds
